Values were extracted from patent US20230408517A1.

Target: IN v1 variant RBD (R319-F541 with L452R, E484Q) (SARS-CoV-2, UniProt P0DTC2 319-541)
Test: lateral flow NC50, RBD-AuNP vs immobilised ACE2
Experimental Readout: IC50 (µg/mL)
Note: unit µg/mL is implicit; provide only the numeric part.

Challenge: Given the entry 1035762 (antibody, V domains shown) VH: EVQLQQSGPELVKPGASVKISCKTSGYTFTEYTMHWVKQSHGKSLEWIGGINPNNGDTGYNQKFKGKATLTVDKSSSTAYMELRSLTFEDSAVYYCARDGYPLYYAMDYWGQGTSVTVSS VL: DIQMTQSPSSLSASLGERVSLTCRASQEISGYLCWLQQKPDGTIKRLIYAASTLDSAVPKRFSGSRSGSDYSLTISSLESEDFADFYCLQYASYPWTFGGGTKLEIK , report its measured IC50.
Response given: 0.77
